Measured kcat, listed per entry.
target: Factor X, P00742
Sequence (P00742 whole entry, looked up): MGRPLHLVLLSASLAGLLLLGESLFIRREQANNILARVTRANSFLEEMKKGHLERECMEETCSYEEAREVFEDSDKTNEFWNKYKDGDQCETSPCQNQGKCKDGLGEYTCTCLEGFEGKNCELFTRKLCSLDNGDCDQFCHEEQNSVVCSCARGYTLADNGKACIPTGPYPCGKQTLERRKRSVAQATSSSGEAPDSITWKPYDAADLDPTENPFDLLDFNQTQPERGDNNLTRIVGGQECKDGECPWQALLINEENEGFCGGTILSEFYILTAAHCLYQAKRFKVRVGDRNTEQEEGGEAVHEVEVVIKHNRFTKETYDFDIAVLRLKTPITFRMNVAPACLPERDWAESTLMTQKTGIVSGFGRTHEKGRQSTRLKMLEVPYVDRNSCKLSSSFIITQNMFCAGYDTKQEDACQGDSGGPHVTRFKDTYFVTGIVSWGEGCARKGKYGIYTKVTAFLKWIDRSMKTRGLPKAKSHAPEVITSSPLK

{"columns": ["protein", "kcat (s⁻¹)"],
 "data": [
  ["FIXa-Y155F/R338E/T343R/R403E/E410N (protein) chain 1: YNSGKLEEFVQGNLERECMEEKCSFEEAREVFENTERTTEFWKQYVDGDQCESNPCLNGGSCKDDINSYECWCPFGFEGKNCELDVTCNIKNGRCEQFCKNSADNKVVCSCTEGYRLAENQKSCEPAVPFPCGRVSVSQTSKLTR chain 2: VVGGEDAKPGQFPWQVVLNGKVDAFCGGSIVNEKWIVTAAHCVETGVKITVVAGEHNIEETEHTEQKRNVIRIIPHHNYNAAINKYNHDIALLELDEPLVLNSYVTPICIADKEYTNIFLKFGSGYVSGWGRVFHKGRSALVLQYLRVPLVDRATCLESTKFRIYNNMFCAGFHEGGRDSCQGDSGGPHVTEVEGTSFLTGIISWGEECAMKGKYGIYTKVSEYVNWIKNKTKLT", 5.7],
  ["FIXa-Y155F/K247N/N249S/R338E/R403E (protein) chain 1: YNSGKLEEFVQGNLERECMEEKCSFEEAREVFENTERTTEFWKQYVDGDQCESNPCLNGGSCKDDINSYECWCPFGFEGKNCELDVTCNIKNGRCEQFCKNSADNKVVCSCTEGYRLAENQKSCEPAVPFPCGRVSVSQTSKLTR chain 2: VVGGEDAKPGQFPWQVVLNGKVDAFCGGSIVNEKWIVTAAHCVETGVKITVVAGEHNIEETEHTEQNRSVIRIIPHHNYNAAINKYNHDIALLELDEPLVLNSYVTPICIADKEYTNIFLKFGSGYVSGWGRVFHKGRSALVLQYLRVPLVDRATCLESTKFTIYNNMFCAGFHEGGRDSCQGDSGGPHVTEVEGTSFLTGIISWGEECAMKGKYGIYTKVSEYVNWIKEKTKLT", 5.3],
  ["FIXa-Y155F/R318Y/R338E/T343R/E410N (protein) chain 1: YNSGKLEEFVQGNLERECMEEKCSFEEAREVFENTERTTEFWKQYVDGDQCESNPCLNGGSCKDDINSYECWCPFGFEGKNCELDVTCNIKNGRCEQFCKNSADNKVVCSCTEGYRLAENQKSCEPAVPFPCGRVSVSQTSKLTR chain 2: VVGGEDAKPGQFPWQVVLNGKVDAFCGGSIVNEKWIVTAAHCVETGVKITVVAGEHNIEETEHTEQKRNVIRIIPHHNYNAAINKYNHDIALLELDEPLVLNSYVTPICIADKEYTNIFLKFGSGYVSGWGRVFHKGYSALVLQYLRVPLVDRATCLESTKFRIYNNMFCAGFHEGGRDSCQGDSGGPHVTEVEGTSFLTGIISWGEECAMKGKYGIYTKVSRYVNWIKNKTKLT", 9.2],
  ["FIXa-R318Y/R338E/T343R/R403E/E410S (protein) chain 1: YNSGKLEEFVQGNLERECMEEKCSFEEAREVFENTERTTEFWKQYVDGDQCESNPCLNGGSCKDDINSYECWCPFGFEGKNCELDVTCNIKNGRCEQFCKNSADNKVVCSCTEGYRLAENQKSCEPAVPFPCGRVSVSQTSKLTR chain 2: VVGGEDAKPGQFPWQVVLNGKVDAFCGGSIVNEKWIVTAAHCVETGVKITVVAGEHNIEETEHTEQKRNVIRIIPHHNYNAAINKYNHDIALLELDEPLVLNSYVTPICIADKEYTNIFLKFGSGYVSGWGRVFHKGYSALVLQYLRVPLVDRATCLESTKFRIYNNMFCAGFHEGGRDSCQGDSGGPHVTEVEGTSFLTGIISWGEECAMKGKYGIYTKVSEYVNWIKSKTKLT", 7.6]
]}
